Every entry's value here was drawn from paper PMC3218832.

- assay.target: RELA (p65) subunit of heterodimer;p52 subunit (Homo sapiens;Homo sapiens, UniProt Q04206;Q00653 1-307;4-332)
- experiment: protein binding microarray; high values mean tight binding
- recorded.conditions: dsDNA, one strand shown
Field 'label' (enum: Satisfied / Not satisfied). Set to Satisfied when binding signal is strictly under -0.7 z-score; else Not satisfied.

Illustrative cases are given below, each with its answer.
GAGTGCGTCCT: Satisfied
GGAGGTATCCC: Not satisfied

Strictly below -0.7 z-score: is that where binding signal of GGGGTGATCCC sits?
Not satisfied

Strictly below -0.7 z-score: is that where binding signal of CAGTAGGTCCC sits?
Not satisfied

Strictly below -0.7 z-score: is that where binding signal of CAAGGTTCCCC sits?
Not satisfied

====

- assay.target: C-Rel subunit;p50 subunit (Homo sapiens;Homo sapiens, UniProt Q04864;P19838 1-285;7-356)
- Sequence (P19838 7-356, one chain of several): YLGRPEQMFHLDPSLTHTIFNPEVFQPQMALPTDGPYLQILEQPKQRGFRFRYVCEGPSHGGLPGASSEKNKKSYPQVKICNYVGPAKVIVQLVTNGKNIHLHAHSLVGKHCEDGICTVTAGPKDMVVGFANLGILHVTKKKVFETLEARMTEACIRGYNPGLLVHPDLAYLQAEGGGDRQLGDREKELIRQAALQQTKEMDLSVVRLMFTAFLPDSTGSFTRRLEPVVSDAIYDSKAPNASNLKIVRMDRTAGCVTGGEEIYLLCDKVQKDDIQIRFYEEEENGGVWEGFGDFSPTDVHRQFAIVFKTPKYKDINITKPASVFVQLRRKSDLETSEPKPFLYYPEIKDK
- experiment: protein binding microarray; high values mean tight binding
- recorded.conditions: dsDNA, one strand shown
Kindly state binding signal for each of the entries shown.
Numbers only, in z-score.

Worked cases, binding signal given:
CAATTCGTCCC: 0.479
GAGTGCTTCCC: -0.23
GGGGTCGCCCC: 0.866

Return reported binding signal values for all items listed beneath this line.
1. GAAGTACCCCC
2. CAGATCGTCCT
3. CAGTAGCTCCT
4. CAGAAGTCCCT
5. CAAATAATCCT
6. AGAATCCCCCC
7. AGATAGATCCT

1. 0.887
2. -1.17
3. -1.72
4. 1.39
5. -1.09
6. 1.9
7. -1.64

====

- assay.target: RELARELA (p65 homodimer) (Homo sapiens, UniProt Q04206 1-307)
- Sequence (Q04206 1-307): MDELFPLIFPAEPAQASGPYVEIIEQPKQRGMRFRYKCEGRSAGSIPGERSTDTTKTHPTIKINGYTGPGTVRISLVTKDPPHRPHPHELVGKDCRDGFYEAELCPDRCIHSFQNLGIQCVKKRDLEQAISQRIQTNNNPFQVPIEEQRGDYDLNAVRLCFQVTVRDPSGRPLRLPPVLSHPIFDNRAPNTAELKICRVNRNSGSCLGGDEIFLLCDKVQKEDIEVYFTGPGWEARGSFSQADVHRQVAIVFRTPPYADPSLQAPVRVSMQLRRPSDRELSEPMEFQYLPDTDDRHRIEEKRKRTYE
- experiment: protein binding microarray; high values mean tight binding
- recorded.conditions: dsDNA, one strand shown
Quick rule for you: binding signal at 0.1 z-score or higher means Y, lower means N.

Illustrative cases are given below, each with its answer.
CGGAGAGTCCT: Y
GAGATAGTCCT: N
AGGTTGCTCCC: N

// inclusive: binding signal at least 0.1 z-score? input: CGGAACGTCCC
Y

// inclusive: binding signal at least 0.1 z-score? input: GGAGGTACCCT
N

====

- assay.target: C-Rel subunit;p52 subunit (Homo sapiens;Homo sapiens, UniProt Q04864;Q00653 1-285;4-332)
- Sequence 1: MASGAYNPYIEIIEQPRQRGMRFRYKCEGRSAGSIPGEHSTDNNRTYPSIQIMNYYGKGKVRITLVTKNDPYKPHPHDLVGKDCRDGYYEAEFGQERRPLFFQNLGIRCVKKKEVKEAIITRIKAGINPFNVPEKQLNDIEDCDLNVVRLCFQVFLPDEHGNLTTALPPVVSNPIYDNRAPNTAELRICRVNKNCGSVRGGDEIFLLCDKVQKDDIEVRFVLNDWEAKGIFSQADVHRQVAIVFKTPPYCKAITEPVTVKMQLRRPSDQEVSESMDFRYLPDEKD
- Sequence 2: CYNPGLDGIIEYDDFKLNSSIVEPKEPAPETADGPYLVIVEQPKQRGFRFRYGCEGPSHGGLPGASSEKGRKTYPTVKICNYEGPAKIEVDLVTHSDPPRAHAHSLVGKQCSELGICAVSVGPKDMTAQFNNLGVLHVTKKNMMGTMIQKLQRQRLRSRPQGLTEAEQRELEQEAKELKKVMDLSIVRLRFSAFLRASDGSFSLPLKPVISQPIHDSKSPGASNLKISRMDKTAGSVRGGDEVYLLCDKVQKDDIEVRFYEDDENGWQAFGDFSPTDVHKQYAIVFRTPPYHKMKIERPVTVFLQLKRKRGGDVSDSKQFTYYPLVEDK
- experiment: protein binding microarray; high values mean tight binding
- recorded.conditions: dsDNA, one strand shown
Kindly state binding signal for each of the entries shown.
Numbers only, in z-score.

Worked cases, binding signal given:
GAAGAGTTCCC: 0.057
AAAGTGATCCT: -0.986

Return reported binding signal values for all items listed beneath this line.
1. GAAAATATCCT
2. AAAAGAATCCC
3. AAGAACACCCC
4. AGGTACGCCCC
5. CAAGAACCCCC
6. CAATGCACCCT
7. CGGTTTTTCCC

1. -0.675
2. 0.359
3. 0.274
4. 0.674
5. 0.879
6. -0.653
7. 2.3
